Reported values of inhibition of SARS-CoV-2 cytopathic effect for individual entries
- Tested on: Vero E6 infected with SARS-CoV-2
- assay.comment: inhibition of SARS-CoV-2 cytopathic effect; higher = more antiviral protection, active = above 15
- conditions.used: 8.33 nM; 48 h
Express it in %; write the number only.

Some solved cases for reference:
compound	observed.result
CCC(C(=O)O)c1ccc(CC(C)C)cc1 (stereo not given)	-1
CCC1=C[C@@H]2CN(C1)Cc1c([nH]c3ccccc13)[C@@](C(=O)OC)(c1cc3c(cc1OC)N(C)[C@H]1[C@@](O)(C(=O)OC)[C@H](OC(C)=O)[C@]4(CC)C=CCN5CC[C@]31[C@@H]54)C2	-1.57
O=C(O)/C=C/c1ccc(-c2ccc(O)c(C34CC5CC(CC(C5)C3)C4)c2)cc1	-0.4
COC(=O)C1=C(C)NC(C)=C(C(=O)OC(C)C)[C@@H]1c1cccc2nonc12	2.79
O=C1c2ccccc2C(Cc2ccnc(F)c2)(Cc2ccnc(F)c2)c2ccccc21	0.21

May I ask what inhibition of SARS-CoV-2 cytopathic effect has been recorded for CCCc1nc(C(C)(C)O)c(C(=O)OCc2oc(=O)oc2C)n1Cc1ccc(-c2ccccc2-c2nnn[nH]2)cc1 ? 0.1

May I ask what inhibition of SARS-CoV-2 cytopathic effect has been recorded for CCC[C@H](N[C@@H](C)C(=O)N1[C@H](C(=O)O)C[C@@H]2CCCC[C@@H]21)C(=O)O ? -0.1

May I ask what inhibition of SARS-CoV-2 cytopathic effect has been recorded for NC(=O)Nc1cc(-c2cccc(F)c2)sc1C(=O)N[C@H]1CCCNC1 ? 0.53

May I ask what inhibition of SARS-CoV-2 cytopathic effect has been recorded for Cc1nnc(C[C@@H]2C=C(c3ccc(Cl)cc3)c3ccccc3-n3c(C)nnc32)o1 ? 0.46

May I ask what inhibition of SARS-CoV-2 cytopathic effect has been recorded for c1coc(CNc2ncnc3[nH]cnc23)c1 ? 1.25

May I ask what inhibition of SARS-CoV-2 cytopathic effect has been recorded for Cc1c(-c2ccnn2C)cc(C(=O)NCc2ccc(S(C)(=O)=O)cn2)c(=O)n1-c1cccc(C(F)(F)F)c1 ? -0.81

May I ask what inhibition of SARS-CoV-2 cytopathic effect has been recorded for C[C@]12CC[C@@H]3c4ccc(O)cc4C[C@@H](CCCCCCCCC[S+]([O-])CCCC(F)(F)C(F)(F)F)[C@H]3[C@@H]1CC[C@@H]2O (stereo not given in full) ? -1.22

May I ask what inhibition of SARS-CoV-2 cytopathic effect has been recorded for O=C1NCCc2[nH]c(-c3ccncc3)cc21 ? -0.69

====

- Tested on: Vero E6 infected with SARS-CoV-2
- assay.comment: inhibition of SARS-CoV-2 cytopathic effect; higher = more antiviral protection, active = above 15
- conditions.used: 100 nM; 48 h
parameter: inhibition of SARS-CoV-2 cytopathic effect

Some solved cases for reference:
compound	tested.on	observed.result
Cc1nccc2[nH]c(=O)ccc12	Vero E6 infected with SARS-CoV-2	1.27% (inactive)
COc1cc(C)[nH]c(=O)c1CNC(=O)c1c(C)n([C@H](C)C2CCOCC2)c2ccccc12	Vero E6 infected with SARS-CoV-2	0.4% (inactive)
COc1ccc2cc(OCC3(C(=O)O)CN(C(=O)c4ccc(F)cc4)C3)ccc2c1	Vero E6 infected with SARS-CoV-2	1.35% (inactive)
Cc1cn2nc([C@@H]3CCCCN3C(=O)c3cc(Cl)ccc3NS(C)(=O)=O)cc2nc1N1CC[C@H](N)C1	Vero E6 infected with SARS-CoV-2	-1.98% (inactive)
CCOCc1cc(OC)c(-c2ccc(C[C@H](NC(=O)c3c(F)cccc3F)C(=O)O)cc2)c(OC)c1	Vero E6 infected with SARS-CoV-2	0.01% (inactive)

Shifting focus to the compound that follows.
GET /values?readout=inhibition of SARS-CoV-2 cytopathic effect&system=Vero E6 infected with SARS-CoV-2&item= CC(=O)O[C@]1(C(C)=O)CC[C@H]2[C@@H]3C[C@H](C)C4=CC(=O)CC[C@]4(C)[C@H]3CC[C@@]21C [medroxyprogesterone-acetate] -1.14% (inactive)

Reference source for all entries: the supplement of paper PMC13380429
